- tested target: EGFR (Homo sapiens)
- Construct: endogenous in cells; host or cells: A431 cells (lysate, captured with SUMO1 anti-EGFR antibody)
- Sequence (P00533 25-1210): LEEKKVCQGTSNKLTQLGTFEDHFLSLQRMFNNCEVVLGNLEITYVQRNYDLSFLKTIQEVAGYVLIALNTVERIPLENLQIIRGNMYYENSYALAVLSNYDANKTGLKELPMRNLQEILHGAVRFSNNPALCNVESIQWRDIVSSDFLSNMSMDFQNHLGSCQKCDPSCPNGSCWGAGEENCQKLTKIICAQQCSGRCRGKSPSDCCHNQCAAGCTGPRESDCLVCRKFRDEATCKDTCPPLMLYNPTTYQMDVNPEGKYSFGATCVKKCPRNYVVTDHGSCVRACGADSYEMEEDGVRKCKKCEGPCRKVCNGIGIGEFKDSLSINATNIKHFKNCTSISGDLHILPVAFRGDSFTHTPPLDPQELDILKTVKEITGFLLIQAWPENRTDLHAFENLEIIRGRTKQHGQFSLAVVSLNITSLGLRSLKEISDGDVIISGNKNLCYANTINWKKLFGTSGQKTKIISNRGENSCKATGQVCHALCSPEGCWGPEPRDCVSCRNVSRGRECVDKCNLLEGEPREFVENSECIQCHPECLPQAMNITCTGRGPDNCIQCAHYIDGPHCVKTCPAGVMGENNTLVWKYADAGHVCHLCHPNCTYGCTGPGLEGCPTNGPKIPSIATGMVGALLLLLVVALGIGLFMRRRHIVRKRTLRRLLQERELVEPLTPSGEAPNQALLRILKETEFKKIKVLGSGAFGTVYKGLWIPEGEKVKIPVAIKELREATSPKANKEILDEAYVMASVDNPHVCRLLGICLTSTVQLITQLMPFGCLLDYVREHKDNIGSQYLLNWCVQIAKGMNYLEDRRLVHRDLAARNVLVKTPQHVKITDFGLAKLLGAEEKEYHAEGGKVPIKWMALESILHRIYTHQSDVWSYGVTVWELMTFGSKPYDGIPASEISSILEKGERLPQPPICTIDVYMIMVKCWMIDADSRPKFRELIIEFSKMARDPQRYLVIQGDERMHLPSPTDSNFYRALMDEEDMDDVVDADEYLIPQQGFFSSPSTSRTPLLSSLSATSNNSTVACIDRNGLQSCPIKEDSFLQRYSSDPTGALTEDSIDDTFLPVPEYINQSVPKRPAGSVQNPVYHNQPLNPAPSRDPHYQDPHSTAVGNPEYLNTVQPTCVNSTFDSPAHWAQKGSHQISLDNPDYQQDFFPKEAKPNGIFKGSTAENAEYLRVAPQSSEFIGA
- test: Biochemical EGFR Assay
- Parameters: concentration or dose not given beside the values
- condition context: protocol P.167
- Experimental: This assay measures the in vitro kinase activity of EGFR using ELISA. 1. Corning 96-well Elisa plates (Corning Catalog No. 25805-96). 2. SUMO1 monoclonal anti-EGFR antibody (Biochemistry Lab, SUGEN, Inc.). 3. PBS (Dulbecco's Phosphate-Buffered Saline, Gibco Catalog No. 450-1300EB). 6. […] Mix first two ingredients in about 900 ml dH2O, adjust pH to 4.0 with phosphoric acid. […] The solution should be kept in the dark at 4° C. until ready to use. […] 22. Read assay on Dynatech MR7000 ELISA reader. […]
Measured Biochem EGFR % Inhibition (P.167) values are reported for all entries that follow.
readout kind: Biochem EGFR % Inhibition (P.167) (%)

1) O=C1Nc2ccc(S(=O)(=O)Nc3ccc(C(F)(F)F)cc3)cc2C1=Cc1cc(O)c(O)c(O)c1
79.6
2) Cc1c(Br)cc(Br)c2c1C(=Cc1cc(O)cc(O)c1)C(=O)N2
−13.4
3) Cc1c(Br)ccc2c1C(=Cc1cccc(O)c1O)C(=O)N2
28.7
4) Cc1cccc(C=C2C(=O)Nc3c(Br)cc(Br)c(C)c32)c1
−4.3
5) O=C1Nc2ccc(CCCl)cc2C1=Cc1ccnc2ccccc12
19.5
6) CCCOc1ccc(C=C2C(=O)Nc3ccc(S(=O)(=O)Nc4ccc(C(F)(F)F)cc4)cc32)cc1
15.8
7) O=C1Nc2c(Br)cc(Br)cc2C1=Cc1ccc(Cl)c(Cl)c1
6.0
8) O=C1Nc2ccc(CCCl)cc2C1=Cc1cc(O)cc(O)c1
−1.9
9) Cc1ccc(C=C2C(=O)Nc3ccc(I)cc32)c(C)c1
−34.9
10) Cc1c(Br)cc(Br)c2c1C(=Cc1ccc3ccccc3c1)C(=O)N2
−36.6
11) O=C1Nc2ccc(I)cc2C1=Cc1cc(F)ccc1F
7.1
12) O=C1Nc2ccc(I)cc2C1=Cc1ccoc1
−2.1
13) Cc1c(Br)cc(Br)c2c1C(=Cc1ccccc1Cl)C(=O)N2
11.1
14) Cc1c(Br)cc(Br)c2c1C(=Cc1cccc(F)c1)C(=O)N2
52.2
15) O=C1Nc2ccc(CCCl)cc2C1=Cc1ccc2ccccc2c1
30.8
16) Cc1c(Br)ccc2c1C(=Cc1cc(O)ccc1[N+](=O)[O-])C(=O)N2
18.4
17) COc1ccc(C=C2C(=O)Nc3ccc(I)cc32)cc1C
18.1
18) CCOc1ccc(C=C2C(=O)Nc3ccc(S(=O)(=O)N4CCOCC4)cc32)cc1
21.4
19) O=C1Nc2ccc(S(=O)(=O)N3CCOCC3)cc2C1=Cc1ccc2ccccc2n1
19.9
20) Cc1ccc(C)c(C=C2C(=O)Nc3ccc(I)cc32)c1
18.1
21) COc1ccc(C=C2C(=O)Nc3c(Br)cc(Br)cc32)cc1C
0.0
22) COc1ccc(C=C2C(=O)Nc3ccc(S(=O)(=O)Nc4ccc(C(F)(F)F)cc4)cc32)cc1C
−8.3
23) Cc1c(Br)ccc2c1C(=CC1COc3ccccc3O1)C(=O)N2 (stereo not shown)
−1.7
24) CNS(=O)(=O)c1ccc2c(c1)C(=CN1CCCC1OC)C(=O)N2 (stereo not shown)
−1.2
25) COC1CCCN1C=C1C(=O)Nc2c(Br)cc(Br)cc21 (racemic)
5.2
